- assay method text: qHTS assay to identify small molecule agonists of the NFkB signaling pathway - cell viability counter screen (AID 1159515); note: nearly all actives have a fitted effect of over 55% in size
- condition context: NFkB-bla ME-180 viability, CellTiter-Glo luminescence, 5 h; series mostly up to 61 µM
Records with an inconclusive call do not appear. Activity calls are given as the source filed them. Calls come from the whole dose curve.
Tick one outcome: active, inactive

Solved entries:
# fetch the recorded call for O=C1CCCCCCCCCCCCCCCO1 here
inactive

# fetch the recorded call for CC(C)(C)c1ccc(C(O)CCCN2CCC(C(O)(c3ccccc3)c3ccccc3)CC2)cc1 (configuration not stated) here
active

# fetch the recorded call for Cc1ccc(O)c(O)c1 here
inactive

# fetch the recorded call for O=C(Oc1ccccc1)Oc1ccccc1 here
inactive

# fetch the recorded call for COC1=C(OC)C(=O)C(CCCCCCCCCCO)=C(C)C1=O here
inactive

Further cases:
# fetch the recorded call for Nc1ccc(C(=O)O)c(O)c1 here
inactive

# fetch the recorded call for COC(=O)Nc1nc2ccc(C(=O)c3ccccc3)cc2[nH]1 here
inactive

# fetch the recorded call for C#C[C@]1(O)CC[C@H]2[C@@H]3[C@H](C)CC4=C(CCC(=O)C4)[C@H]3CC[C@@]21C here
inactive

# fetch the recorded call for O=C(c1ccc(O)c(O)c1)c1ccc(O)cc1O here
inactive

# fetch the recorded call for CCN(CC)C(=O)c1cc(S(=O)(=O)Cc2ccccc2)c(N2CCC(c3ccccc3)CC2)cc1N(CC)CCN(C)C here
active

# fetch the recorded call for Cc1c2ccccc2c(C)c2c1ccc1ccccc12 here
active

# fetch the recorded call for CCCCCCCCCCC[C@@H](C[C@@H]1OC(=O)[C@H]1CCCCCC)OC(=O)[C@H](CC(C)C)NC=O here
inactive

# fetch the recorded call for Cc1c(C)c2c(c(C)c1O)CC[C@@](C)(CCC[C@H](C)CCC[C@H](C)CCCC(C)C)O2 here
inactive

# fetch the recorded call for CN1CCN(Cc2cc(-c3ccc4[nH]c(=O)oc4c3)co2)[C@@H](c2ccc(F)cc2)C1 here
inactive

# fetch the recorded call for COc1cccc2c1C(=O)c1c(O)c3c(c(O)c1C2=O)C[C@@](O)(C(C)=O)C[C@@H]3O[C@H]1C[C@H](N)[C@H](O)[C@H](C)O1 here
inactive
